Examples of compounds with documented Stability follow.
- test.description: Stability of the compound in PBS containing 10% DMSO at 25 degC measured after 9 hrs by HPLC analysis
- Format: physicochemical
- particulars: buffer
Response body: numeric value in %, unit text excluded.

As a guide, the following entries are already answered.
Consider CC1CCC(NC(=O)CSc2nc3ccccc3c(=O)[nH]2)CC1 (configuration not stated) . Its measured Stability is 99

Consider O=C(CSc1nc2ccccc2c(=O)[nH]1)NCC1CCCCC1 . Its measured Stability is 116

Consider CC1CCCCC1NC(=O)CSc1nc2ccccc2c(=O)[nH]1 (configuration not stated) . Its measured Stability is 127

Consider CC1CCCC(NC(=O)CSc2nc3ccccc3c(=O)[nH]2)C1 (configuration not stated) . Its measured Stability is 100

Consider O=C(CSc1nc2ccccc2c(=O)[nH]1)NC1CCCCCC1 . Its measured Stability is 91

Consider C[C@H]1CC[C@H](NC(=O)CSc2nc3ccccc3c(=O)[nH]2)CC1 . Its measured Stability is 64

Next:
Consider O=C(CSc1nc2ccccc2c(=O)[nH]1)NC1CCCCC1 . Its measured Stability is 118
